Can you tell me growth for the items I'm about to list?
tested on: UO-31 renal; assay: NCI-60 one-dose screen, 48 h (100 = growth as untreated, 0 = no growth, -100 = all killed); conditions: 10 µM unless noted
The panel holds about 83,000 compounds, 20% with a hit somewhere; the sample as a whole holds those more often.
Numbers only here, please. The scale is %.

q: Give growth (UO-31 renal) of the following compound: Nc1c2c(nc3ccc(Cl)cc13)CC(c1ccc(O)cc1)CC2=O (stereo not given)
a: 60

q: Notebook: pull reported growth for UO-31 renal, entry C[Si](C)(C)Cc1ccccc1
a: 95.9

q: # get_value(readout= growth, system= UO-31 renal) for CC(C)C[C@@H](NC(=O)[C@@H](Cc1ccccc1)NC(=O)c1cnccn1)B1O[C@H]2[C@H](O)[C@@H](C(=O)NCCCC[C@@H]3NC(=O)[C@@H](Cc4ccccc4)NC(=O)[C@H](CC(=O)O)NC(=O)CNC(=O)[C@H](CCCN=C(N)N)NC3=O)O[C@@H](CN)[C@H]2O1
a: -16.4

q: Can you look up growth on UO-31 renal for N#CC1=C(N)Oc2c(c(N)nn2-c2ccccc2)C1c1ccc(Cl)cc1Cl (stereo not given) ?
a: 73.8

q: Test system UO-31 renal; read-out growth; what value for Cn1c(=O)c2c(nc(Br)n2CC(=O)Nc2ccc(F)cc2)n(C)c1=O ?
a: 80.9

---

system: OVCAR-4 ovarian; test: NCI-60 one-dose screen, 48 h (100 = growth as untreated, 0 = no growth, -100 = all killed); conditions: 10 µM unless noted
Compounds without any hit were thinned out: in the full panel of roughly 83,000, 20% have a hit.
Each entry gets 0.0 if its growth stays under 50%, and 1.0 if its growth is 50% or above.

q: Please tell me: is the molecule N#CCCCCCn1c2ccccc2c2c3c(c4c5ccccc5n(CCCCCC#N)c4c21)C(=O)N(O)C3=O at or over 50% in terms of growth?
a: 1.0

q: Test whether the molecule CC(=O)Cc1nsc(NC(=O)c2ccoc2COc2ccccc2)n1 records growth of 50% or higher.
a: 1.0

q: State whether the measured growth reaches 50%, counting equality as reaching it, for Cc1ccc(N(CC(=O)Nc2ccc(S(=O)(=O)NC3CCN(C)CC3)cc2)S(=O)(=O)c2ccc(Cl)cc2)cc1
a: 1.0

q: Dear colleague, could you confirm whether COc1cc2c(cc1-c1c(C)noc1C)ncc1nc(C3CCCCC3)n([C@@H](C)COC(F)F)c12 has growth at or above 50%?
a: 0.0

q: Please indicate if the recorded growth for O=c1[nH]c(=S)[nH]c2nc[nH]c12 meets or exceeds 50%.
a: 1.0

q: hey, is growth for this one >= 50%? Cc1oc(-c2ccccc2Cl)cc1C(=O)Nc1ccc(S(N)(=O)=O)cc1
a: 1.0

q: Check if growth >= 50% (inclusive). Item: [B-][N+](CC)(CC)c1ccccc1
a: 1.0

q: For this molecule, is measured growth 50% or higher? COc1cc2nc(Cl)nc(Nc3cccc(C(=O)/C=C/c4ccc(F)cc4)c3)c2cc1OC
a: 1.0

q: Exam item: decide whether the reported growth for C[C@@H](Oc1ccc(C(=O)NS(=O)(=O)C(C)(C)C)cc1C(F)(F)F)c1ccc(Oc2ccccc2)cn1 is at least 50%.
a: 1.0

q: Could you verify whether the entry OCCNc1nc(Nc2ccc(Cl)c(Cl)c2)nc2ccccc12 shows growth of no less than 50%?
a: 0.0

q: Does Cc1ccc(-c2nc([P+](c3ccccc3)(c3ccccc3)c3ccccc3)c(N3CCOCC3)o2)cc1 have a reported growth of at least 50%?
a: 0.0

q: Could you tell me if the measured growth of COc1ccc2c(c1)C/C(=C\c1cc(-c3ccc4c(c3)OCO4)n[nH]1)C2=O reaches 50% or more?
a: 1.0

q: Is reported growth greater than or equal to 50% here: CN(C)c1ccc(C(=O)c2ccc(N(C)C)c(N)c2)cc1N
a: 0.0

q: Hi team, for CC(=O)c1c(C)[nH]c(-c2nc3ccc(N4CCN(C)CC4)cc3[nH]2)c1-c1ccc2c(c1)OCCO2 , is the recorded growth at or above 50%?
a: 0.0

q: Given C=COCCCCCCCCCCCCCCCCCC , state whether its growth is at least 50%.
a: 1.0

q: Reported growth at or above 50%? N=c1ccc2nc3c(cc(N)c4ccccc43)oc-2c1
a: 0.0

q: Determine whether measured growth meets or exceeds 50% for COc1cccc(-c2nn(-c3ccccc3)cc2-c2ccnc(NCCCNS(=O)(=O)c3ccccc3)c2)c1
a: 0.0

q: Please indicate if the recorded growth for Cn1c2ccccc2c2c3c(c4c5cccnc5[nH]c4c21)C(=O)N(O)C3=O meets or exceeds 50%.
a: 1.0

q: Has COC(=O)[C@]12CC[C@@H](C)[C@H](C)[C@@H]1C1=CC[C@@H]3[C@@]4(C)C[C@@H](OC(C)=O)[C@H](OC(C)=O)[C@@](C)(COC(C)=O)[C@@H]4[C@H](O)C[C@@]3(C)[C@]1(C)CC2 a recorded growth greater than or equal to 50%?
a: 0.0

q: API: above_or_equal(metric=growth, cutoff=50%) for item CC1=NN(c2ccc(S(=O)(=O)O)cc2Cl)C(=O)C1
a: 1.0

q: Item Cn1cccc1/C=C1/SC(=S)N(CCc2ccc(O)cc2)C1=O with growth of 50% or above?
a: 1.0
